tested on: human SKM-1 acute myeloid leukemia cells; test: SKM-1 antiproliferation cell-based assay (ATPlite); settings: Homo sapiens, SKM-1, 96 h, SKM-1 antiproliferation assay, 4 days, Table C2
Measured GI50 of individual entries

> print(dat)
                                   compound  value.reported
1  CC(C)C(=O)Nc1cc(-c2cc(F)cc(-c3ccc(-n4ccn(C)c4=O)c(Cl)c3)c2O)cc(N2CC[C@H](N)C2)n1 [Example 524]    0.3 to 30 nM
2  Cn1ccn(-c2ccc(-c3cc(F)cc(-c4ccc5ccc(C(C)(C)O)cc5c4)c3O)cc2Cl)c1=O [Example 801]    30 to 300 nM
3  C[C@@H]1CN(c2cc(-c3cccc(-c4ccc(N5CCCC5=O)c(F)c4)c3O)ccn2)CCN1 [Example 252]  300 to 3000 nM
4  COCC(C)(C)N1CCN(c2cc(-c3cc(F)cc(-c4ccc(-n5ccn(C)c5=O)c(Cl)c4)c3O)cn(C)c2=O)CC1 [Example 763]    0.3 to 30 nM
5  Cn1ccn(-c2ccc(-c3cc(F)cc(-c4cncc(N5CCC(N)CC5)c4)c3O)cc2Cl)c1=O [Example 459]    0.3 to 30 nM
6  CC(C)[C@@H]1CN(c2cc(-c3cc(F)cc(-c4ccc(-n5ccn(C)c5=O)c(Cl)c4)c3O)ccn2)CCN1 [Example 667]    0.3 to 30 nM
7  Cn1ccn(-c2ccc(-c3cc(F)cc(-c4cc(N5CC[C@@H](N)C5)c5cn[nH]c5c4)c3O)cc2Cl)c1=O [Example 593]    0.3 to 30 nM
8  C[C@@H]1CN(c2cc(-c3cc(F)cc(-c4ccc(-n5ccn(C)c5=O)c(Cl)c4)c3O)cn(C)c2=O)CCN1 [Example 432]    0.3 to 30 nM

Now consider a different compound.
Request: Fill in reported GI50 for this entry: Cn1ccn(-c2ccc(-c3cc(F)cc(-c4cc(N5CCC[C@@H](N)C5)c5cn[nH]c5c4)c3O)cc2Cl)c1=O [Example 586]
Result: 0.3 to 30 nM

---

test system: human SKM-1 acute myeloid leukemia cells; experiment: SKM-1 antiproliferation cell-based assay (ATPlite); settings: Homo sapiens, SKM-1, 96 h, SKM-1 antiproliferation assay, 4 days, Table C2
Endpoint: GI50

Some solved entries appear below for comparison.
> print(dat)
                                   compound                           measured.target  endpoint     value.reported
1  C[C@@H]1CN(c2cc(-c3cc(F)cc(-c4ccc(-n5ccn(C)c5=O)c(Cl)c4)c3O)cc3c2nnn3C)CCN1  human SKM-1 acute myeloid leukemia cells      GI50  0.0003 to 0.03 µM
2  O=C1CCCCN1c1ccc(-c2cccc(-c3ccnc(N4CCNCC4)c3)c2O)cc1Cl  human SKM-1 acute myeloid leukemia cells      GI50        0.3 to 3 µM
3  Cn1ccn(-c2ccc(-c3cc(F)cc(-c4ccnc(N5CC(O)C6(CC6)C5)c4)c3O)cc2Cl)c1=O (stereo not shown)  human SKM-1 acute myeloid leukemia cells      GI50  0.0003 to 0.03 µM
4  Cc1ccc(-c2cc(F)cc(-c3ccc(-n4ccn(C)c4=O)c(Cl)c3)c2O)cc1N1CC(C)(O)C1  human SKM-1 acute myeloid leukemia cells      GI50     0.03 to 0.3 µM
5  CC(=O)Nc1ccc(-c2cccc(-c3ccnc(N4CC(C)NC(C)C4)c3)c2O)cc1F (stereo not shown)  human SKM-1 acute myeloid leukemia cells      GI50        0.3 to 3 µM

Request: Give GI50 for O=c1sccn1-c1ccc(-c2cc(F)cc(-c3ccnc(N4CCNCC4)c3)c2O)cc1Cl
Result: 0.0003 to 0.03 µM

Request: In one line, give reported GI50 of the entry O=C1CCCN1c1ccc(-c2cccc(-c3ccnc(N4CC5(CNC5)C4)c3)c2O)cc1F .
Result: 0.3 to 3 µM
